Below: a set of entries, each annotated with reported self-cleavage.
B1: Twister Ribozyme (parent)
chain: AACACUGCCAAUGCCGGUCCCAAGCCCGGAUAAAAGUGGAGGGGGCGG

# Variants of: B1
# method-summary: self-cleavage, relative activity (ratio to wild type); higher = more cleavage; co-transcriptional
metric: self-cleavage

- mutant: "C21A A40G"
  observed-value: 0.0639
- mutant: "C21G C46G"
  observed-value: 0.113
- mutant: "G13A G28U"
  observed-value: 0.623
- mutant: "G13C G38A"
  observed-value: 0.219
- mutant: "G48A"
  observed-value: 0.986
- mutant: "A1U C8A"
  observed-value: 0.0697
- mutant: "C19U C20A"
  observed-value: 0.107
- mutant: "A11C C46G"
  observed-value: 0.917
- mutant: "C20U A32C"
  observed-value: 0.758
- mutant: "A34C G39U"
  observed-value: 0.11
- mutant: "A11G C19G"
  observed-value: 0.538
- mutant: "U12C G47U"
  observed-value: 0.944
- mutant: "U6C G42C"
  observed-value: 0.11
- mutant: "C25A A40G"
  observed-value: 0.0786
- mutant: "C27U G42U"
  observed-value: 0.177
- mutant: "U6A G42C"
  observed-value: 0.291
- mutant: "C21G A22G"
  observed-value: 0.135
- mutant: "A10G A34C"
  observed-value: 0.498
- mutant: "C15A U37A"
  observed-value: 0.129
- mutant: "A23C A32U"
  observed-value: 0.241
- mutant: "G17U C26U"
  observed-value: 0.458
- mutant: "U31G G48C"
  observed-value: 1.19
